molecular target: human RORγt ligand binding domain (RORγt LBD) (Homo sapiens (Human)); test: RORγt ThermoFluor® assay (thermal shift binding); details: read-out: ThermoFluor® Assay, Kd
Sequence (P51449 other isoform, or with tags, fused parts or gaps): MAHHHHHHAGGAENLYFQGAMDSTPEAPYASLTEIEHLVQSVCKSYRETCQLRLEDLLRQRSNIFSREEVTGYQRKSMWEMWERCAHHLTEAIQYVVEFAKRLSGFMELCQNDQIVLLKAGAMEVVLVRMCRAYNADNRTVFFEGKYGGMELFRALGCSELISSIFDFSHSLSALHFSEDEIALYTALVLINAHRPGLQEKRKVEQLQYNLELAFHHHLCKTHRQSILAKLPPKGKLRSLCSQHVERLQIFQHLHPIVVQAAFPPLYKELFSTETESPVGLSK
Exercise: state measured pKd for each of the molecules provided.
Give only the number. pKd is defined as minus log10 of concentration in molar units.

QUERY: Consider the molecule CCCn1nc(C(=O)NC[C@H]2CC[C@H](S(C)(=O)=O)CC2)c(Cl)c1-c1ccc(N[C@H](C)C(F)(F)F)cc1OC and give its measured pKd.
RESULT: 8.68

QUERY: Entry CCOc1cc(N[C@H](C)C(F)(F)F)ccc1-c1c(Cl)c(C(=O)NC[C@H]2CC[C@H](S(C)(=O)=O)CC2)nn1CC : reported pKd = ?
RESULT: 8.27

QUERY: Looking for the measured pKd of CCn1nc(C(=O)NC[C@H]2CC[C@H](S(C)(=O)=O)CC2)c(Cl)c1-c1ccc(N[C@H](C)C(F)(F)F)cc1OC , can you help?
RESULT: 8.34

QUERY: Entry CCn1nc(C(=O)NC[C@H]2CC[C@H](S(C)(=O)=O)CC2)c(Cl)c1-c1ccc(CCC(F)(F)F)cc1OC(F)F : reported pKd = ?
RESULT: 9.12

QUERY: Endpoint output: pKd of COCCn1nc(C(=O)NC[C@]2(O)CC[C@@H](S(C)(=O)=O)CC2)c(C)c1-c1ccc(CC(C)(C)C(F)(F)F)cc1OC(F)F . Value?
RESULT: 8.72

QUERY: I'd like to know its pKd. The molecule in question is COc1cc(CC(C)C(F)(F)F)ccc1-c1c(Cl)c(C(=O)NC[C@H]2CC[C@H](S(C)(=O)=O)CC2)nn1CCO (stereo partly drawn)
RESULT: 7.89

QUERY: pKd for CCn1nc(C(=O)NC[C@]2(O)CC[C@@H](S(C)(=O)=O)CC2)c(Cl)c1-c1ccc(CCC(C)C)cc1OC ?
RESULT: 9.06

QUERY: Fill in the blank: the reported pKd of CCn1nc(C(=O)NC[C@H]2CC[C@H](S(C)(=O)=O)CC2)c(Cl)c1-c1ccc(CC(C(F)(F)F)C(F)(F)F)cc1OC(F)F is ____.
RESULT: 9.77

QUERY: Can you share its pKd? I mean this molecule: CCn1nc(C(=O)NC[C@H]2CC[C@H](S(C)(=O)=O)CC2)c(Cl)c1-c1ccc(CCC(C)C)cc1OC
RESULT: 9.48

QUERY: What does the record list as pKd for CCn1nc(C(=O)NC[C@H]2CC[C@H](S(C)(=O)=O)CC2)c(Cl)c1-c1ccc(N[C@H](C)C(F)(F)F)cc1C(F)(F)F ?
RESULT: 8.42

QUERY: Look up pKd for this molecule: Cn1nc(C(=O)NC[C@]2(O)CC[C@@H](S(C)(=O)=O)CC2)c(Cl)c1-c1ccc(CC(C)(C)C(F)(F)F)cc1OC(F)F
RESULT: 9.10

QUERY: Fill in the blank: the reported pKd of CCn1nc(C(=O)NC[C@H]2CC[C@H](S(=O)(=O)NC(C)=O)CC2)c(Cl)c1-c1ccc(CC(C)(C)C(F)(F)F)cc1OC(F)F is ____.
RESULT: 9.15

###

Could you please report measured inhibition at 3 µM for the items listed next?
molecular target: full-length human RORγt (Homo sapiens (Human), UniProt P51449); experiment: RORγt (full-length human) reporter assay, conditions A or B, HEK293T cells; assay type: cell-based; details: HEK-293T; 3 μM compound concentration (footnote *); read-out: RORγt (FL) Reporter Assay A or B, % inhibition
Sequence (P51449 other isoform, or with tags, fused parts or gaps): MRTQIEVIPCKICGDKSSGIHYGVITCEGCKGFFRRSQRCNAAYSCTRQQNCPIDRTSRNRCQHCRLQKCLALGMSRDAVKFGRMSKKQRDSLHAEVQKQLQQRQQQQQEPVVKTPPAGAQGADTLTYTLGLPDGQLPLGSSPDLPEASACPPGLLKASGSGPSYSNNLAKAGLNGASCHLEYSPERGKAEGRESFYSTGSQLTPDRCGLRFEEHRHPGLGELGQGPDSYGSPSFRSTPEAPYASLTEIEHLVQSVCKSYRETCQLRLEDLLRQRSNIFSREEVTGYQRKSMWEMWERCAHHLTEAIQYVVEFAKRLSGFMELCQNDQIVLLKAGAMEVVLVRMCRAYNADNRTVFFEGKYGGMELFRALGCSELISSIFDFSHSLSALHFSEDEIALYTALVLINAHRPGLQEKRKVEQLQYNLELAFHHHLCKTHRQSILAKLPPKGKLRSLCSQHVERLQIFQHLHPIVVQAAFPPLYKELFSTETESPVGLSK
Express the result in % but write the number alone.

QUERY: Please give the measured inhibition at 3 µM for this compound: CCn1nc(C(=O)NC[C@]2(O)CC[C@@H](S(N)(=O)=O)CC2)c(Cl)c1-c1ccc(C[C@H](C)C(F)(F)F)cc1OC(F)F (single isomer, unassigned)
RESULT: 114

QUERY: // lookup inhibition at 3 µM for CCn1nc(C(=O)NC[C@]2(O)CC[C@@H](S(C)(=O)=O)C[C@H]2O)c(C)c1-c1ccc(C[C@@H](C)C(F)(F)F)cc1OC(F)F (stereo in doubt)
RESULT: 109

QUERY: Entry CCn1nc(C(=O)NC[C@]2(O)CC[C@@H](S(C)(=O)=O)CC2)c(Cl)c1-c1ccc(C(O)CCC(F)(F)F)cc1OC(F)F (stereo partly drawn) : reported inhibition at 3 µM = ?
RESULT: 89

The measurements presented in this section are drawn from patent US10975037B2.
